System: A/Virginia/ATCC3/2009 (H1N1)
Test: microbe, parasite or virus in culture
Format: cell-based
Settings: Influenza A virus, MDCK, read-out: Cell Protection Assay EC50 ± SD
pEC50: −log10 of the molar value.
assay-readout: pEC50

compound="O=C(O)[C@H]1C2CCC(CC2)C1Nc1nc(-c2c[nH]c3ncc(F)cc23)ncc1F (stereo partly shown)" test_system="A/Virginia/ATCC3/2009 (H1N1)" assay_result=8.72

----------
Assay: physchem
Details: water, thermodynamic from solid
assay-readout: solubility thermodynamic at 2 weeks

compound="O=C(O)[C@H]1C2CCC(CC2)C1Nc1nc(-c2c[nH]c3ncc(F)cc23)ncc1F (stereo partly shown) [Form A free base Compound (1)]" assay_readout="solubility thermodynamic at 2 weeks" assay_result="< 100 µg/mL"
